Source: paper PMC5540273

Can you tell me %Inh for the items I'm about to list?
tested on: HIPK3; conditions: concentration: 1 μM, replicates: in singlicate; n = 1;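 also: KINOMEscan kinase panel screen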
State just the number; it will be interpreted in %.

Need %Inh, item Cn1cc(-c2[nH]c3cc(NC(=O)[C@H](N)C4CCCCC4)cc4c3c2C=NNC4=O)cn1
80

Need %Inh, item O=C(Nc1n[nH]c2cc(-c3ccoc3)ccc12)C1CC1
58

Need %Inh, item COc1cccc(C(=O)Nc2cccc(Oc3ccc4nc(NC(=O)C5CC5)cn4n3)c2)c1
0

Need %Inh, item O=C(O)C(F)(F)F.O=C(O)C(F)(F)F.O=c1[nH]ccc2nc(N[C@@H]3CCCNC3)nc(Nc3ccc(S(=O)(=O)N4CCOCC4)cc3)c12
97.2

Need %Inh, item CCn1c(-c2nonc2N)nc2c(C#CC(C)(C)O)ncc(OCCCCN)c21.O=C(O)C(F)(F)F.O=C(O)C(F)(F)F
100

Need %Inh, item c1ccc(Oc2ccc(Nc3ccnc4cc(-c5ccc(CNCCN6CCOCC6)o5)ccc34)cc2)nc1
10

Need %Inh, item CCS(=O)(=O)c1ccc(OC)c(Nc2nccc(-c3c(-c4cccc(NC(=O)c5c(F)cccc5F)c4)nn4ncccc34)n2)c1
1

Need %Inh, item Cl.Cl.NCC(NC(=O)c1cc(-c2ccccc2)c(-c2ccnc3[nH]ccc23)s1)c1ccccc1 (stereo not shown)
47

Need %Inh, item O=C(NC1CCN(c2ccnc(Nc3ccc(F)cc3)n2)C1)c1cc2ccccc2s1 (stereo not shown)
8

Need %Inh, item CCCCc1nn2ncccc2c1-c1ccnc(Nc2ccc(N3CCN(C)CC3)cc2)n1
32

Need %Inh, item CN(C)Cc1ccc(-c2ccc3c(Nc4ccc(Oc5ccccn5)cc4)ccnc3c2)o1
1

Need %Inh, item COc1ccc(-c2coc3ccc(-c4nnc(SCc5ccc(OC)c(C(F)(F)F)c5)o4)cc23)cc1
14

Need %Inh, item Oc1cc(Nc2ccnc3cc(I)ccc23)ccc1F
20

Need %Inh, item CN(C)S(=O)(=O)c1cc(-c2ccc3nccc(-c4cccc(S(N)(=O)=O)c4)c3c2)cnc1N
44

Need %Inh, item COc1cc(Nc2nccc(-c3c(-c4cccc(NC(=O)c5c(F)cccc5F)c4)nn4ncccc34)n2)cc(OC)c1OC
18

Need %Inh, item O=C(Nc1cccc(-c2nn3ccccc3c2-c2ccnc(Nc3cccc(C(F)(F)F)c3)n2)c1)c1c(F)cccc1F
0

* * *

system: RSK4(Kin.Dom.2-C-terminal); construct: gene RPS6KA6; details: concentration: 1 μM, replicates: in singlicate; n = 1
%Inh vs 20%: at or above is 1, below is 0.

Textbook exercise: given the entry COc1cc(Nc2nccc(-c3c(-c4cccc(NC(=O)c5c(F)cccc5F)c4)nn4ccccc34)n2)cc(OC)c1OC , state whether its %Inh is greater than or equal to 20%.
1

Textbook exercise: given the entry Cl.c1ccc(-c2ccc3c(Nc4ccc5[nH]ncc5c4)ccnc3c2)nc1 , state whether its %Inh is greater than or equal to 20%.
0

Textbook exercise: given the entry COCCOCCOc1cc2ncc3c4ccc(C#N)cc4[nH]c3c2cc1OC , state whether its %Inh is greater than or equal to 20%.
0

Textbook exercise: given the entry CC(=O)Nc1nc2cnc(Nc3cc(NC(=O)c4cccc(C5(C#N)CC5)c4Cl)ccc3C)nc2s1 , state whether its %Inh is greater than or equal to 20%.
0

Textbook exercise: given the entry Cc1ccc(C)c(NC(=O)NC2CCN(c3ccnc(Nc4ccc(F)cc4)n3)C2)c1 (centres unmarked) , state whether its %Inh is greater than or equal to 20%.
0

Textbook exercise: given the entry CN(C)Cc1ccc(-c2ccc3c(Nc4ccc(Oc5ccccn5)cc4)ccnc3c2)o1 , state whether its %Inh is greater than or equal to 20%.
0

Textbook exercise: given the entry CCn1c(-c2nonc2N)nc2c(C#CC(C)(C)O)ncc(OCCCCN)c21.O=C(O)C(F)(F)F.O=C(O)C(F)(F)F , state whether its %Inh is greater than or equal to 20%.
0

Textbook exercise: given the entry CCCCc1nn2ncccc2c1-c1ccnc(Nc2ccc(N3CCN(C)CC3)cc2)n1 , state whether its %Inh is greater than or equal to 20%.
1

Textbook exercise: given the entry COC(=O)Nc1nc2ccc(Oc3ccc(NC(=O)Nc4cc(C(F)(F)F)ccc4F)cc3)cc2n1C.Cl , state whether its %Inh is greater than or equal to 20%.
0

Textbook exercise: given the entry CCn1c(-c2nonc2N)nc2c(C#CC(C)(C)O)nc(OC[C@H](N)c3ccccc3)cc21 , state whether its %Inh is greater than or equal to 20%.
0

Textbook exercise: given the entry Cc1cccc(Nc2nc(N[C@H]3CCNC3)ncc2C(N)=O)c1.Cl , state whether its %Inh is greater than or equal to 20%.
1

Textbook exercise: given the entry Oc1cc(Nc2ccnc3cc(I)ccc23)ccc1F , state whether its %Inh is greater than or equal to 20%.
1

Textbook exercise: given the entry COc1cccc(C(=O)Nc2cccc(Oc3ccc4nc(NC(=O)C5CC5)cn4n3)c2)c1 , state whether its %Inh is greater than or equal to 20%.
0

Textbook exercise: given the entry c1ccc(-c2n[nH]cc2Nc2ccnc3ccccc23)nc1 , state whether its %Inh is greater than or equal to 20%.
0

Textbook exercise: given the entry Cc1cccc(NC(=O)Nc2ccc(Oc3ncnc4ccn(C)c34)cc2)c1 , state whether its %Inh is greater than or equal to 20%.
0

Textbook exercise: given the entry O=C(O)C(F)(F)F.O=C(O)C(F)(F)F.O=c1[nH]ccc2nc(N[C@@H]3CCCNC3)nc(Nc3ccc(S(=O)(=O)N4CCOCC4)cc3)c12 , state whether its %Inh is greater than or equal to 20%.
1

Textbook exercise: given the entry Cn1cc(-c2ccc3c(c2)CCN3C(=O)Cc2cccc(Cl)c2)c2c(N)ncnc21 , state whether its %Inh is greater than or equal to 20%.
0

* * *

system: p38-gamma; construct: gene MAPK12; details: concentration: 1 μM, replicates: in singlicate; n = 1
Can you tell me %Inh for the items I'm about to list?
State just the number; it will be interpreted in %.

Need %Inh, item CN(C)S(=O)(=O)c1cc(-c2ccc3nccc(-c4cccc(S(N)(=O)=O)c4)c3c2)cnc1N
23

Need %Inh, item CCn1c(-c2nonc2N)nc2c(C#CC(C)(C)O)ncc(OCCCCN)c21.O=C(O)C(F)(F)F.O=C(O)C(F)(F)F
0

Need %Inh, item CCc1ccc(-c2ccc3c(c2)-c2c(cnn2C)S(=O)(=O)N3C)cc1
14

Need %Inh, item O=C(Nc1cccc(-c2nn3ncccc3c2-c2ccnc(Nc3ccccc3)n2)c1)c1c(F)cccc1F
0

Need %Inh, item COc1cc(Nc2nccc(-c3c(-c4cccc(NC(=O)c5c(F)cccc5F)c4)nn4ncccc34)n2)cc(OC)c1OC
21

Need %Inh, item Cl.NC(=O)c1cccc(Nc2nccc(Nc3ccc(Oc4c(Cl)cccc4Cl)c(Cl)c3)n2)c1
0

Need %Inh, item Cn1cc(-c2ccc3c(c2)CCN3C(=O)Cc2cccc(F)c2)c2c(N)ncnc21
19

Need %Inh, item Cl.Cl.NCC(C(=O)Nc1cc(Br)c(-c2ccnc3[nH]ccc23)s1)c1ccccc1 (stereo not shown)
0

Need %Inh, item CC(=O)N1CCN(c2ccc(Nc3nccc(-c4sc(C(C)C)nc4-c4cccc(NS(=O)(=O)c5cccc(Cl)c5)c4)n3)cn2)CC1
11

Need %Inh, item Cc1ccc(S(=O)(=O)Nc2ccc(Nc3nccc(Nc4cccc5[nH]ncc45)n3)cc2)cc1
0

Need %Inh, item COC(=O)Nc1nc2ccc(Oc3ccc(NC(=O)Nc4cc(C(F)(F)F)ccc4F)cc3)cc2n1C.Cl
44

Need %Inh, item COc1ccc(Nc2nccc(NCCNC(=O)c3cc4ccccc4s3)n2)cc1
5

Need %Inh, item Oc1cc(Nc2ccnc3cc(I)ccc23)ccc1F
0

Need %Inh, item CN(c1ccc(NC(=O)Nc2cc(C(F)(F)F)ccc2F)cc1)c1ccnc(Nc2ccc(S(N)(=O)=O)cc2)n1
85

Need %Inh, item Cl.c1ccc(-c2ccc3c(Nc4ccc5[nH]ccc5c4)ccnc3c2)nc1
0

Need %Inh, item CC(C)(C)c1ccc2nccc(Nc3cccc(O)c3)c2c1
18

* * *

tested on: MEK2; construct: gene MAP2K2; conditions: concentration: 1 μM, replicates: in singlicate; n = 1
We label by threshold. Values of %Inh strictly beneath 1% are satisfied. Values of 1% and up are not satisfied.

Take the molecule O=C(Nc1ccccc1F)NC1CCN(c2ccnc(Nc3ccc(F)cc3)n2)CC1 [GSK1379800] and say whether its %Inh is less than 1%.
satisfied

Take the molecule c1ccc(-c2n[nH]cc2Nc2ccnc3ccccc23)nc1 [GW694077] and say whether its %Inh is less than 1%.
satisfied

Take the molecule O=c1[nH]cc(-c2ccc(N3CCOCC3)cc2)c2sc(-c3cn[nH]c3)cc12 [GSK2276055] and say whether its %Inh is less than 1%.
not satisfied

Take the molecule COc1cc(Nc2nccc(-c3c(-c4cccc(NC(=O)c5c(F)cccc5F)c4)nn4ncccc34)n2)cc(OC)c1OC [GSK327238] and say whether its %Inh is less than 1%.
not satisfied

Take the molecule COc1cccc(NC(=O)NC2CCN(c3ccnc(Nc4cc(OC)c(OC)c(OC)c4)n3)C2)c1 (stereo not drawn) [GSK1379763] and say whether its %Inh is less than 1%.
not satisfied

Take the molecule CN1CCN(Cc2cccc(-c3ccc4c(Nc5ccc(Oc6ccccc6)cc5)ccnc4c3)c2)CC1 [GW578342] and say whether its %Inh is less than 1%.
not satisfied

Take the molecule O=C(NC1CCN(c2ccnc(Nc3ccc(F)cc3)n2)C1)c1cc2ccccc2s1 (stereo not drawn) [GSK1379716] and say whether its %Inh is less than 1%.
not satisfied

Take the molecule CNC(=O)c1ccccc1Nc1nc(Nc2ccc(N3CCOCC3)cc2)ncc1Cl.Cl [GSK1576028] and say whether its %Inh is less than 1%.
not satisfied

Take the molecule O=C(Nc1n[nH]c2cc(-c3ccoc3)ccc12)C1CC1 [SB-738481] and say whether its %Inh is less than 1%.
not satisfied

Take the molecule CCn1c(-c2nonc2N)nc2c(C#CC(C)(C)O)nc(OC[C@H](N)c3ccccc3)cc21 [GSK943949] and say whether its %Inh is less than 1%.
satisfied

Take the molecule CN(c1ccc(NC(=O)Nc2cc(C(F)(F)F)ccc2F)cc1)c1ccnc(Nc2ccc(S(N)(=O)=O)cc2)n1 [GW809893] and say whether its %Inh is less than 1%.
not satisfied

Take the molecule Nc1ncnc2c1nc(-c1ccccc1)n2-c1ccccc1 [SKF-97293] and say whether its %Inh is less than 1%.
not satisfied

Take the molecule c1ccc(-c2cnc3nccnn23)cc1 [AH20685] and say whether its %Inh is less than 1%.
satisfied

Take the molecule Cl.Cl.NCC(C(=O)Nc1cc(Br)c(-c2ccnc3[nH]ccc23)s1)c1ccccc1 (stereo not drawn) [GSK1269851] and say whether its %Inh is less than 1%.
satisfied

Take the molecule COc1cc(Nc2nccc(N3CCC(NC(=O)Nc4cccc(C(C)=O)c4)C3)n2)cc(OC)c1OC (stereo not drawn) [GSK1379753] and say whether its %Inh is less than 1%.
satisfied

Take the molecule Cc1ccc(C(=O)N2CC[C@@H](O)C2)cc1-n1c(C)cc(OCc2ccc(F)cc2F)c(Br)c1=O and say whether its %Inh is less than 1%.
not satisfied

Take the molecule Cn1cc(-c2ccc3c(c2)CCN3C(=O)Cc2cccc(F)c2)c2c(N)ncnc21 [GSK2603358] and say whether its %Inh is less than 1%.
satisfied

Take the molecule O=C(Nc1cccc(-c2nn3ccccc3c2-c2ccnc(Nc3cccc(C(F)(F)F)c3)n2)c1)c1c(F)cccc1F [GSK292658] and say whether its %Inh is less than 1%.
satisfied

Take the molecule CCCCc1nn2ncccc2c1-c1ccnc(Nc2ccc(N3CCN(C)CC3)cc2)n1 [GW684941] and say whether its %Inh is less than 1%.
satisfied

Take the molecule COc1cc2c(cc1OCCN1CCNCC1)ncc1c3ccc(C#N)cc3[nH]c21 and say whether its %Inh is less than 1%.
not satisfied

Take the molecule Fc1ccc(-c2ncn(C3CCNCC3)c2-c2ccnc(Oc3ccc(-c4ccccc4)cc3)n2)cc1 [SB-245391] and say whether its %Inh is less than 1%.
not satisfied

Take the molecule Clc1ccc(-c2nn3ncccc3c2-c2ccnc(Nc3ccc4c(c3)OCCO4)n2)cc1 [GW829116] and say whether its %Inh is less than 1%.
not satisfied

Take the molecule Nc1ncc(-c2ccc3nccc(-c4ccncc4)c3c2)cc1S(=O)(=O)N1CCOCC1 [GSK1627798] and say whether its %Inh is less than 1%.
satisfied

Take the molecule CCc1ccc(-c2ccc3c(c2)-c2c(cnn2C)S(=O)(=O)N3C)cc1 and say whether its %Inh is less than 1%.
satisfied

Take the molecule O=C(Nc1cccc(Oc2ccc3nc(NC(=O)C4CC4)cn3n2)c1)c1ccccc1C(F)(F)F and say whether its %Inh is less than 1%.
not satisfied

Take the molecule Cc1ccc(C(=O)Nc2ccc(Nc3ccnc4cc(-c5nccs5)ccc34)cc2O)cc1.Cl [GW494702] and say whether its %Inh is less than 1%.
satisfied

Take the molecule COc1cccc(-c2ccc3c(NC(=O)C4CC4)n[nH]c3n2)c1 [SB-710903] and say whether its %Inh is less than 1%.
satisfied

Take the molecule COc1cccc(C(=O)Nc2cccc(Oc3ccc4nc(NC(=O)C5CC5)cn4n3)c2)c1 and say whether its %Inh is less than 1%.
not satisfied

Take the molecule Cc1ccc(F)c(C(=O)Nc2cccc(-c3nn4ccccc4c3-c3ccnc(Nc4cccc(F)c4)n3)c2)c1F [GSK361061] and say whether its %Inh is less than 1%.
satisfied

Take the molecule O=C(O)C(F)(F)F.O=C(O)C(F)(F)F.O=c1[nH]ccc2nc(N[C@@H]3CCCNC3)nc(Nc3ccc(S(=O)(=O)N4CCOCC4)cc3)c12 [GSK2177277] and say whether its %Inh is less than 1%.
not satisfied
